Origin of the recorded values: PubChem BioAssay (NCATS)

target: Cytochrome P450 2D6 (Homo sapiens) (UniProt P10635); assay: Cytochrome P450 family 2 subfamily D member 6 (CYP2D6) small molecule antagonists: luciferase biochemical (cell-free) qHTS assay (AID 1645840); settings: P450-Glo CYP2D6 enzyme, luciferin luminescence, 1 h; series mostly up to 57.4 µM; also: nearly all actives have a fitted effect of over 55% in size
Sequence (P10635 whole entry, looked up): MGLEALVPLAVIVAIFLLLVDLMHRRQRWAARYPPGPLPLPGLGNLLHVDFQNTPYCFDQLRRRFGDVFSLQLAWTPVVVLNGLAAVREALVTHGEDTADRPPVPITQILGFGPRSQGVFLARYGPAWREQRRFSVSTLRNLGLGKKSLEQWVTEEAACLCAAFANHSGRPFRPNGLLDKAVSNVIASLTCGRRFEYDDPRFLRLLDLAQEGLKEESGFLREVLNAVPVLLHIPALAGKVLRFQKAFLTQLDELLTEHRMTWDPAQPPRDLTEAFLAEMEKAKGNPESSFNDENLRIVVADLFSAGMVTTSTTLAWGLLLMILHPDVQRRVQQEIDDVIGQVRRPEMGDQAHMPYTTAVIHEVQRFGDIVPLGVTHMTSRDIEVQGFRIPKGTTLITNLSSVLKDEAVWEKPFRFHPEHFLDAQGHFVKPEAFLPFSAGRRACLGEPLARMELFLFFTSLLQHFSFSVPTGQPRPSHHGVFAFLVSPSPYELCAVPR
Results filed as inconclusive are left out. The source made the active and inactive calls. Calls follow the shape of the dose curve; as a rule, active = well fitted inhibition curve with a large enough effect in the repeat runs; inconclusive = weak or mixed curves; inactive = flat fitted curve, though single readings scatter.
Hello, when you answer, please use one of the following outcomes: true (1) (active), false (0) (inactive)

Solved cases (9 shown):
INSERT INTO measurements (compound, classification) VALUES
  ('C[C@]12CC[C@@H]3c4ccc(O)cc4C[C@@H](CCCCCCCCCS(=O)CCCC(F)(F)C(F)(F)F)[C@H]3[C@@H]1CC[C@@H]2O (stereo not given in full)', 'false (0)'),
  ('OCCN1CCN(CCCN2c3ccccc3C=Cc3ccccc32)CC1', 'true (1)'),
  ('COC(=O)[C@H]1[C@H]2C[C@@H]3c4[nH]c5cc(OC)ccc5c4CCN3C[C@H]2C[C@@H](OC(=O)c2cc(OC)c(OC)c(OC)c2)[C@@H]1OC', 'true (1)'),
  ('CCCCNC(=O)NS(=O)(=O)c1ccc(C)cc1', 'false (0)'),
  ('Cc1cccc(C)c1NC(=O)C(C)N (stereo not given)', 'false (0)'),
  ('C[N+](C)(C)CCCCCCCCCC[N+](C)(C)C', 'false (0)'),
  ('CC(C)(Oc1ccc(CCNC(=O)c2ccc(Cl)cc2)cc1)C(=O)O', 'false (0)'),
  ('CC(=O)Nc1nnc(S(N)(=O)=O)s1', 'false (0)'),
  ('O=c1[nH]c(=O)n([C@H]2C[C@H](O)[C@@H](CO)O2)cc1Br', 'false (0)');

We next turn to a different compound, shown below.
Write down the call the test reported for this compound. Item: CN/C(=C\[N+](=O)[O-])NCCSCc1ccc(CN(C)C)o1
true (1)

* * *

assay: qHTS for differential inhibitors of proliferation of Plasmodium falciparum line GB4 (AID 1816); conditions: Plasmodium falciparum GB4 proliferation inhibition; series mostly up to 28.7 µM;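 also: parasite growth measured after 72 h incubation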; also: potency is read from the fitted curve at half-maximal effect
Inconclusive results are not listed. Active and inactive are the calls of the source. Calls come from the whole dose curve; as a rule, active = well fitted curve in the direction sought with a large enough effect; inconclusive = small, poorly fitted or top-dose-only effect, or another doubt; inactive = no such curve, though single readings can be large or run the other way.
attributeMeasured: Potency

INSERT INTO measurements (molecule, attributemeasured, result) VALUES
  ('CCCN(CCC)C(=O)C(CCC(=O)O)NC(=O)c1ccccc1 (stereo unspecified)', 'Potency', 'inactive'),
  ('O=C1NCN(c2ccccc2)C12CCN(CCCC(c1ccc(F)cc1)c1ccc(F)cc1)CC2', 'Potency', '8.91 µM (active)'),
  ('O=C(O)CN(CCOCCOCCN(CC(=O)O)CC(=O)O)CC(=O)O', 'Potency', 'inactive'),
  ('C[N+](C)(C)CCOC(=O)CCC(=O)OCC[N+](C)(C)C', 'Potency', 'inactive'),
  ('CC(C)COCC(CN(Cc1ccccc1)c1ccccc1)N1CCCC1 (stereo unspecified)', 'Potency', 'inactive');

Turning now to a further molecule:
Report Potency for C[N+](C)(C)CCOC(N)=O please.
inactive

* * *

assay: qHTS assay to identify small molecule inhibitors of chordoma cells - UCH-2 (AID 1259356); settings: UCH-2 chordoma viability, CellTiter-Glo ATP luminescence, 48 h; series mostly up to 46.1 µM; also: % is scaled to controls: 0 for no effect and ±100 for the full control effect
Records with an inconclusive call do not appear. Activity calls are given as the source filed them. Calls come from the whole dose curve; as a rule, active = well fitted cell-killing curve with a large enough effect; inconclusive = small, poorly fitted or top-dose-only effect; inactive = flat fitted curve, though single readings scatter.
attributeMeasured: outcome

INSERT INTO assay_data (compound, result) VALUES
  ('CNCCC(Oc1ccccc1OC)c1ccccc1 (configuration not stated)', 'inactive'),
  ('CSc1ccc(C(=O)c2[nH]c(=O)[nH]c2C)cc1', 'inactive'),
  ('CCN1CCC[C@H]1CNC(=O)c1c(O)c(Cl)cc(Cl)c1OC', 'inactive'),
  ('C[C@@H](O)[C@H]1C(=O)N2C(C(=O)O)=C(SCCN=CN)C[C@H]12', 'inactive'),
  ('C[C@]12CCC(=O)C=C1CC[C@@H]1[C@@H]2C(=O)C[C@@]2(C)[C@H]1CC[C@]2(O)C(=O)CO', 'inactive'),
  ('Brc1c(NC2=NCCN2)ccc2nccnc12', 'inactive'),
  ('Cc1nnc(SCC2=C(C(=O)O)N3C(=O)[C@@H](NC(=O)Cn4cnnn4)[C@H]3SC2)s1', 'inactive'),
  ('CCc1c(C)[nH]c2c1C(=O)C(CN1CCOCC1)CC2 (configuration not stated)', 'inactive'),
  ('NC(Cc1ccc(Cl)cc1)C(=O)O (configuration not stated)', 'inactive'),
  ('C=CCc1ccccc1OCC(O)CNC(C)C (configuration not stated)', 'inactive');

Report outcome for O=c1[nH]c(=O)n([C@H]2C[C@H](O)[C@@H](CO)O2)cc1Br please.
inactive

Report outcome for CC(C)[N+](C)(CCOC(=O)C1c2ccccc2Oc2ccccc21)C(C)C please.
inactive

* * *

test system: TAB113; assay: qHTS profiling for inhibitors of Plasmodium falciparum proliferation (AID 504749); also: nearly all actives have a fitted effect of over 60% in size; settings: P. falciparum in erythrocytes, SYBR Green DNA, 72 h; series mostly up to 28.7 µM
Records with an inconclusive call do not appear. Activity calls are given as the source filed them. Calls come from the whole dose curve; as a rule, active = well fitted inhibition curve with a large enough effect; inconclusive = small, poorly fitted or top-dose-only effect; inactive = flat fitted curve, though single readings scatter.
Hello, when you answer, please use one of the following outcomes: active, inactive

Solved cases (3 shown):
INSERT INTO measurements (compound, classification) VALUES
  ('O=C(O)CN(CCOCCOCCN(CC(=O)O)CC(=O)O)CC(=O)O', 'inactive'),
  ('CCN(CC)CCNC(=O)c1ccc(NC(C)=O)cc1', 'inactive'),
  ('CC(=O)OCC1=C(C(=O)O)N2C(=O)[C@@H](NC(=O)Cc3cccs3)[C@H]2SC1', 'inactive');

Write down the call the test reported for this compound. Item: CCCCNC(=O)NS(=O)(=O)c1ccc(C)cc1
inactive

Write down the call the test reported for this compound. Item: C[N+](C)(C)CCCCCCCCCC[N+](C)(C)C
active

* * *

test system: astro; test: Drug repurposing screens with cells derived from glioblastoma tumor samples (AID 1345199); settings: viability, ATP luminescence, 48 h; series mostly up to 45.9 µM; also: nearly all actives have a fitted effect of over 40% in size
Records with an inconclusive call do not appear. Active and inactive are the calls of the source. Calls follow the shape of the dose curve; as a rule, active = well fitted inhibition curve with a large enough effect; inconclusive = small, poorly fitted or top-dose-only effect; inactive = flat fitted curve, though single readings scatter.
Hello, when you answer, please use one of the following outcomes: True (active), False (inactive)

Solved cases (4 shown):
INSERT INTO results (compound, targetundertest, classification) VALUES
  ('COc1cc2c(cc1OC)-c1cc(=Nc3c(C)cc(C)cc3C)n(C)c(=O)n1CC2', 'astro', 'True'),
  ('CN(C)CCOC(=O)COc1ccc(Cl)cc1', 'astro', 'False'),
  ('Cc1nc2c([nH]1)c(=O)n(C)c(=O)n2Cc1ccco1', 'astro', 'False'),
  ('C[C@]12C=CC(=O)C=C1CC[C@H]1[C@@H]3C[C@@H](O)[C@](O)(C(=O)CO)[C@@]3(C)C[C@H](O)[C@@]12F', 'astro', 'False');

We next turn to a different molecule, shown below.
Write down the call the test reported for this molecule. Item: O=C(CCCN1CCC(O)(c2cccc(C(F)(F)F)c2)CC1)c1ccc(F)cc1
False

* * *

test system: CP335; assay: qHTS profiling for inhibitors of Plasmodium falciparum proliferation (AID 504749); also: nearly all actives have a fitted effect of over 60% in size; conditions: P. falciparum in erythrocytes, SYBR Green DNA, 72 h; series mostly up to 28.7 µM
Inconclusive results are not listed. The source made the active and inactive calls. The call rests on the fitted dose curve; in most records, active means well fitted inhibition curve with a large enough effect; inconclusive means small, poorly fitted or top-dose-only effect; inactive means flat fitted curve, though single readings scatter.
Hello, when you answer, please use one of the following outcomes: active, inactive

Solved cases (3 shown):
INSERT INTO measurements (compound, classification) VALUES
  ('CCNC(=O)N1CCN(CCCC(c2ccc(F)cc2)c2ccc(F)cc2)CC1', 'active'),
  ('CN(C)CCOC(=O)COc1ccc(Cl)cc1', 'inactive'),
  ('COC(=O)C1=C(C)NC(C)=C(C(=O)OC(C)(C)CN(C)CCC(c2ccccc2)c2ccccc2)C1c1cccc([N+](=O)[O-])c1 (configuration not stated)', 'active');

Write down the call the test reported for this compound. Item: CC(C)NNC(=O)c1ccncc1
inactive

Write down the call the test reported for this compound. Item: COc1ccc([C@@H]2Sc3ccccc3N(CCN(C)C)C(=O)[C@@H]2OC(C)=O)cc1
inactive

* * *

assay: Primary qHTS for inhibitors of nuclear receptor binding SET domain protein 2 (NSD2) in an RCH-ACV wild type WT cells (2C) (AID 1645877); conditions: RCH-ACV (leukaemia line) NSD2 WT (2C) viability, CellTiter-Glo, 72 h; series mostly up to 44.9 µM; also: % is scaled to controls: 0 for no effect and ±100 for the full control effect; nearly all actives have a fitted effect of over 70% in size
Results filed as inconclusive are left out. Calls of active or inactive are those of the source. Calls come from the whole dose curve; as a rule, active = well fitted inhibition curve with a large enough effect; inconclusive = small, poorly fitted or top-dose-only effect; inactive = no such curve, though single readings can be large or run the other way.
Hello, when you answer, please use one of the following outcomes: 1 (yes) for active, 0 (no) for inactive

Write down the call the test reported for this compound. Item: CNC1(C)C2CCC(C2)C1(C)C (centres undefined)
0 (no)

* * *

// reported activity per item
molecular target: Phenylethanolamine N-methyltransferase (Homo sapiens) (UniProt P11086); test: Confirmatory Screen for Target Class Profiling of Small Molecule Inhibitors of Methyltransferases (AID 1745852); settings: MTase-Glo luminescence, SAH detection, recombinant enzyme; measured here: PNMT max response; stronger effect = lower value
Sequence (P11086 whole entry, looked up): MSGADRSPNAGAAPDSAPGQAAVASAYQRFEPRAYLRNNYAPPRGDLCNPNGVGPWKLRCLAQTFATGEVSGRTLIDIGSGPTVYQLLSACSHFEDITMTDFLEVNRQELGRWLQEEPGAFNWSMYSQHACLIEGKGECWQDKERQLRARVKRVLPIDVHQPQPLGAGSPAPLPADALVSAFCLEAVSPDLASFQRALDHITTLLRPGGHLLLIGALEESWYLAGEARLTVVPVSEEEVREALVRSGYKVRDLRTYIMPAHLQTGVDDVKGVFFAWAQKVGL
Hi! Could you send only the number? It should be in %, unit omitted.

Use these answered entries as a reference point.
INSERT INTO results (molecule, endpointunit, number) VALUES
  ('CCC(=O)c1ccc2c(c1)N(CCCN(C)C)c1ccccc1S2', '%', -2.93),
  ('CCc1cccc(N(C)C(N)=Nc2cccc3ccccc23)c1', '%', 1.17),
  ('CN(C)CC[C@@H](c1ccc(Br)cc1)c1ccccn1', '%', 0.473),
  ('NC1=NCC2c3ccccc3Cc3ccccc3N12 (stereo unspecified)', '%', -3.06),
  ('COc1cc(C(=O)OCCCN2CCCN(CCCOC(=O)c3cc(OC)c(OC)c(OC)c3)CC2)cc(OC)c1OC', '%', 1.01);

Value wanted: activity (Phenylethanolamine N-methyltransferase (Homo sapiens) (UniProt P11086)) of entry COC(=O)[C@@H](N)Cc1ccc(O)c(O)c1
5.34
